Here's what we have: pIC50 numbers for UniProt:P22607.
Sequence (P22607 449-759): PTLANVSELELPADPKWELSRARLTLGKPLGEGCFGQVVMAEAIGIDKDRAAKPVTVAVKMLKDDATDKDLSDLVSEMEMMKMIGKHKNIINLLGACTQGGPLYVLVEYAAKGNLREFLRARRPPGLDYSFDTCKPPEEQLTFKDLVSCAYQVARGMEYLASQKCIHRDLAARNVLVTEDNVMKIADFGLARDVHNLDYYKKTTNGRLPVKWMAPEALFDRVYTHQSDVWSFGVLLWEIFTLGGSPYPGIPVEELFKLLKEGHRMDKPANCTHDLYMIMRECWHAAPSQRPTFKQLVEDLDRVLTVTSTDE
pIC50 is defined as minus the log10 of a concentration measured in mol/L.

{"compound": "C=CC(=O)N1C2COCC1CN(C(=O)N1CCC(n3cc(-c4cc(OC)c5c(C#N)cnn5c4)cn3)CC1)C2 [Example 3]", "measurement": 8.52}

Incoming: Provide pIC50, system UniProt:P22607, entry COc1cc(-c2cnn(C3CCN(C(=O)C4CN(C(=O)/C=C/CO)C4)CC3)c2)cn2ncc(C#N)c12 [Example 141]
Outgoing: 8.22

Incoming: Give measured pIC50 for COc1cc(-c2cnn(C3CCN(C(=O)C4CN(C(=O)/C=C/CN5CC[C@@H](F)C5)C4)CC3)c2)cn2ncc(C#N)c12 [Example 183] (UniProt:P22607).
Outgoing: 8.40

Incoming: Identify measured pIC50 obtained with UniProt:P22607 for C=CC(=O)N1CC(C(=O)N2CC3CCC(C2)N3c2ccc(-c3cc(OC)c4c(C#N)cnn4c3)cn2)C1 [Example 51] .
Outgoing: 8.05

Incoming: With UniProt:P22607 as the test system, provide measured pIC50 for this compound: C=CC(=O)N1CCC(C(=O)N2CC(n3cc(-c4cc(OC)c5c(C#N)cnn5c4)cn3)C2)CC1 [Example 75]
Outgoing: 7.66

Incoming: Lab note: record pIC50 of C=CC(=O)N[C@H]1CC[C@H](C(=O)N2CC[C@H](n3cc(-c4cc(OC)c5c(C#N)cnn5c4)cn3)C2)CC1 [Example 65] tested on UniProt:P22607.
Outgoing: 7.25

Incoming: Look up UniProt:P22607 data: pIC50 of C=CC(=O)N[C@H]1C[C@@H](C(=O)N2CCC(n3cc(-c4cc(OC)c5c(C#N)cnn5c4)cn3)CC2)C1 [Example 44] , then report it.
Outgoing: 7.70

Incoming: Lab note: UniProt:P22607 assay, enter pIC50 for COc1cc(-c2cnn(C3CCN(C(=O)C4CN(C(=O)C#CCN(C)C)C4)CC3)c2)cn2ncc(C#N)c12 [Example 176] here
Outgoing: 7.82

Incoming: State measured pIC50 of the compound C=CC(=O)N1CC(O)(C(=O)N2CCC(n3ncc(-c4cc(OC)c5c(Cl)cnn5c4)c3C)CC2)C1 [Example 172] with UniProt:P22607.
Outgoing: 7.60

Incoming: Please respond with reported pIC50 (system UniProt:P22607) for C=CC(=O)N1CC(C(=O)N2CCC(n3ncc(-c4cc(OC)c5c(C#N)cnn5c4)c3C)CC2)C1 [Example 84] .
Outgoing: 7.66

Where do these numbers come from? They come from patent US12180207B2.
